# System: HOP-62 complex spheroids with HUVEC/MSC, viability
# assay_details: Anticancer human tumor HOP-62 cell line growth inhibition [RAS];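 note: spheroids exposed to agents for seven days before readout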
# measurement_parameters: curve of first compound; second compound 0.000949 µM
value_kind: pIC50
Answers are plain numbers, as −log10 of the molar value.

Could you share what pIC50 was measured for O=C(c1ccc(F)c(F)c1Nc1ccc(I)cc1F)N1CC(O)([C@@H]2CCCCN2)C1 + CCn1c(-c2cccnc2C(C)OC)c2c3cc(ccc31)N1CCOC(CC(NC(=O)C(C(C)C)N(C)C(=O)C3(F)CCN(C(=O)C#CC(C)(C)N(C)C)CC3)C(=O)N3CCCC(N3)C(=O)OCC(C)(C)C2)C1 , tested on HOP-62 complex spheroids with HUVEC/MSC, viability?
6.42

---

Hi there, I'd appreciate the recorded viability, T/C for every entry that follows.
# Tested on: HOP-62 complex spheroids with HUVEC/MSC, viability
# assay_details: Anticancer human tumor HOP-62 cell line growth inhibition [RAS];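 note: spheroids exposed to agents for seven days before readout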;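 for viability, T/C: 100% = DMSO vehicle control viability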
# measurement_parameters: second compound 0.0949 µM; first compound 3.16 µM; stronger effect = lower value
# From the text: RAS pathway inhibitors in Combinations in Complex Spheroids A high-throughput screen of multi-cell type tumor spheroids was designed to identify active combinations of RAS pathway inhibitors and targeted small molecules. Complex spheroids include a stromal component modeled by human endothelial cells (HUVEC) and fibroblasts modeled by human mesenchymal stem cells (MSCs). […] Compounds. […] If the clinical Cmax for an agent had not been determined, the highest concentration tested was 10 microM. […]
Numbers only, in %.

CC(C)NCC(C(=O)N1CCN(c2ncnc3c2C(C)CC3O)CC1)c1ccc(Cl)cc1 (centres undefined) + CCn1c(-c2cccnc2C(C)OC)c2c3cc(ccc31)N1CCOC(CC(NC(=O)C(C(C)C)N(C)C(=O)C3(F)CCN(C(=O)C#CC(C)(C)N(C)C)CC3)C(=O)N3CCCC(N3)C(=O)OCC(C)(C)C2)C1 ... 25.5
C[C@@H](NC(=O)c1ncnc(N)c1Cl)c1ncc(C(=O)Nc2cc(C(F)(F)F)c(Cl)cn2)s1 + CCn1c(-c2cc(N3CCN(C)CC3)cnc2C(C)OC)c2c3cc(ccc31)-c1csc(n1)CC(NC(=O)C1CC1C)C(=O)N1CCCC(N1)C(=O)OCC(C)(C)C2 ... 38.6
CC(=O)OC12COC1CC(O)C1(C)C(=O)C(O)C3=C(C)C(OC(=O)C(O)C(NC(=O)OC(C)(C)C)c4ccccc4)CC(O)(C(OC(=O)c4ccccc4)C21)C3(C)C (centres undefined) + CCn1c(-c2cc(N3CCN(C)CC3)cnc2C(C)OC)c2c3cc(ccc31)-c1csc(n1)CC(NC(=O)C1CC1C)C(=O)N1CCCC(N1)C(=O)OCC(C)(C)C2 ... 33.6

Name the reported viability, T/C value associated with the compound CC(Nc1ccc2c(c1)OCCn1cc(N3C(=O)OCC3C(F)F)nc1-2)C(N)=O (centres undefined) + CCn1c(-c2cc(N3CCN(C)CC3)cnc2C(C)OC)c2c3cc(ccc31)-c1csc(n1)CC(NC(=O)C1CC1C)C(=O)N1CCCC(N1)C(=O)OCC(C)(C)C2
12.8

---

# System: HOP-62 complex spheroids with HUVEC/MSC, viability
# assay_details: Anticancer human tumor HOP-62 cell line growth inhibition [RAS];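 note: spheroids exposed to agents for seven days before readout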;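 for viability, T/C: 100% = DMSO vehicle control viability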
# measurement_parameters: second compound 0.0949 µM; first compound 0.1 µM; stronger effect = lower value
// assign true (1) if viability, T/C falls strictly below 60%, else false (0) (ties count as false (0))

NC1c2ccccc2OC12CCN(c1cnc3c(N4CCCc5ncccc54)n[nH]c3n1)CC2 (stereo not drawn) + CCn1c(-c2cccnc2C(C)OC)c2c3cc(ccc31)N1CCOC(CC(NC(=O)C(C(C)C)N(C)C(=O)C3(F)CCN(C(=O)C#CC(C)(C)N(C)C)CC3)C(=O)N3CCCC(N3)C(=O)OCC(C)(C)C2)C1 ... true (1)
C[C@@H](NC(=O)c1ncnc(N)c1Cl)c1ncc(C(=O)Nc2cc(C(F)(F)F)c(Cl)cn2)s1 + CCn1c(-c2cccnc2C(C)OC)c2c3cc(ccc31)N1CCOC(CC(NC(=O)C(C(C)C)N(C)C(=O)C3(F)CCN(C(=O)C#CC(C)(C)N(C)C)CC3)C(=O)N3CCCC(N3)C(=O)OCC(C)(C)C2)C1 ... false (0)
C=CC(=O)N1CCN(c2nc(OCC3CCCN3C)nc3c(F)c(-c4nc(N)cc(C)c4C(F)(F)F)c(Cl)cc23)C(C)C1 (stereo not drawn) + CCn1c(-c2cccnc2C(C)OC)c2c3cc(ccc31)N1CCOC(CC(NC(=O)C(C(C)C)N(C)C(=O)C3(F)CCN(C(=O)C#CC(C)(C)N(C)C)CC3)C(=O)N3CCCC(N3)C(=O)OCC(C)(C)C2)C1 ... false (0)

# TODO verify viability, T/C < 60% strictly for this compound: Cc1nc(N2CCC3(CC2)COC(C)C3N)c(CO)nc1Sc1ccnc(N)c1Cl (stereo not drawn) + CCn1c(-c2cc(N3CCN(C)CC3)cnc2C(C)OC)c2c3cc(ccc31)-c1csc(n1)CC(NC(=O)C1CC1C)C(=O)N1CCCC(N1)C(=O)OCC(C)(C)C2
true (1)

# TODO verify viability, T/C < 60% strictly for this compound: CCC(CC)c1cc(NC2CCC(N)C2)n2nccc2n1 (stereo not drawn) + CCn1c(-c2cccnc2C(C)OC)c2c3cc(ccc31)N1CCOC(CC(NC(=O)C(C(C)C)N(C)C(=O)C3(F)CCN(C(=O)C#CC(C)(C)N(C)C)CC3)C(=O)N3CCCC(N3)C(=O)OCC(C)(C)C2)C1
false (0)

# TODO verify viability, T/C < 60% strictly for this compound: CC(Nc1ccc2c(c1)OCCn1cc(N3C(=O)OCC3C(F)F)nc1-2)C(N)=O (stereo not drawn) + CCn1c(-c2cc(N3CCN(C)CC3)cnc2C(C)OC)c2c3cc(ccc31)-c1csc(n1)CC(NC(=O)C1CC1C)C(=O)N1CCCC(N1)C(=O)OCC(C)(C)C2
true (1)

# TODO verify viability, T/C < 60% strictly for this compound: O=C(c1ccc(F)c(F)c1Nc1ccc(I)cc1F)N1CC(O)([C@@H]2CCCCN2)C1 + CCn1c(-c2cccnc2C(C)OC)c2c3cc(ccc31)N1CCOC(CC(NC(=O)C(C(C)C)N(C)C(=O)C3(F)CCN(C(=O)C#CC(C)(C)N(C)C)CC3)C(=O)N3CCCC(N3)C(=O)OCC(C)(C)C2)C1
true (1)

# TODO verify viability, T/C < 60% strictly for this compound: C[C@@H](NC(=O)c1ncnc(N)c1Cl)c1ncc(C(=O)Nc2cc(C(F)(F)F)c(Cl)cn2)s1 + CCn1c(-c2cc(N3CCN(C)CC3)cnc2C(C)OC)c2c3cc(ccc31)-c1csc(n1)CC(NC(=O)C1CC1C)C(=O)N1CCCC(N1)C(=O)OCC(C)(C)C2
true (1)
